measured target: human MOR (Homo sapiens, UniProt P35372)
Sequence (P35372 whole entry): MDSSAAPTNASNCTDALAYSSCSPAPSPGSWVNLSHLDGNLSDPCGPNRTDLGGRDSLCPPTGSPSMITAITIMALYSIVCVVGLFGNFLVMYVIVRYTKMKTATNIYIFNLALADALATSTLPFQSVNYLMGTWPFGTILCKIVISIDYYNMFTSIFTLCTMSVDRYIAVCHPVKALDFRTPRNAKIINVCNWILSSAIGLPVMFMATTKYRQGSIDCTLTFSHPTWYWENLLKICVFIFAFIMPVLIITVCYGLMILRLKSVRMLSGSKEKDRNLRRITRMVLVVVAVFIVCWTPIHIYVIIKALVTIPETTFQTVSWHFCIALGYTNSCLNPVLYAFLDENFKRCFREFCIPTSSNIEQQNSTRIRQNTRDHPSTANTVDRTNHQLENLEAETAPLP
assay protocol: biochemical
Assay type: biochemical
reported conditions: read-out: Efficacy (% Stimulation) MOR
API: label(entry) gives T if the entry's Emax at 10 µM is strictly smaller than 80%; on equality or larger values it gives F.

Some entries whose results are on file:
[
  {
    "record smiles": "CCOc1ccc(CN2CCc3ccccc3C2)cc1CNC(=O)[C@@H](N)Cc1c(C)cc(O)cc1C.O=C(O)C(F)(F)F",
    "measured target": "human MOR (Homo sapiens, UniProt P35372)",
    "answer label": "F"
  },
  {
    "record smiles": "CCOc1ccc(CN(C)Cc2ccccc2)cc1CNC(=O)[C@@H](N)Cc1c(C)cc(O)cc1C.O=C(O)C(F)(F)F",
    "measured target": "human MOR (Homo sapiens, UniProt P35372)",
    "answer label": "T"
  },
  {
    "record smiles": "CCOc1ccc(C(=O)N2Cc3ccccc3C2)cc1CNC(=O)[C@@H](N)Cc1c(C)cc(O)cc1C.O=C(O)C(F)(F)F",
    "measured target": "human MOR (Homo sapiens, UniProt P35372)",
    "answer label": "T"
  }
]

Switching to the query record.
Field: below-cutoff. Rule: recorded Emax at 10 µM strictly less than 80%. Subject: CCOc1ccc(CN2Cc3ccccc3C2)cc1CNC(=O)[C@@H](N)Cc1c(C)cc(O)cc1C.O=C(O)C(F)(F)F
F

* * *

measured target: human KOR (Homo sapiens, UniProt P41145)
Sequence (P41145 whole entry): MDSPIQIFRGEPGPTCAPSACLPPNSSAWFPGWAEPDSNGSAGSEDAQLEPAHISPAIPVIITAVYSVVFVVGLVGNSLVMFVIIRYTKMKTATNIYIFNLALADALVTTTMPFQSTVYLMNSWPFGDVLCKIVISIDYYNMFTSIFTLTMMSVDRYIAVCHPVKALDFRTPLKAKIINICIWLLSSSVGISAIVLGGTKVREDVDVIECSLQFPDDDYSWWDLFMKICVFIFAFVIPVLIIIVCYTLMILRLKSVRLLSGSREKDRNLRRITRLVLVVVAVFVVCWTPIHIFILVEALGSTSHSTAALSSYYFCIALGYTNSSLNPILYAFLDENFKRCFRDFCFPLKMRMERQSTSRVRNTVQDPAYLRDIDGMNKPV
Assay type: binding
Consider the following compounds; for each one, report its Selectivity MOR:DOR:KOR, KOR term (Ki KOR / Ki MOR).

Worked set:
[
  {
    "compound": "CCOc1ccc(C(=O)N2CCCC2)cc1CNC(=O)[C@@H](N)Cc1c(C)cc(O)cc1C.O=C(O)C(F)(F)F",
    "measured target": "human KOR (Homo sapiens, UniProt P41145)",
    "endpoint result": "1:2.2:>22"
  },
  {
    "compound": "CCOc1ccc(CN2CCOCC2)cc1CNC(=O)[C@@H](N)Cc1c(C)cc(O)cc1C.O=C(O)C(F)(F)F",
    "measured target": "human KOR (Homo sapiens, UniProt P41145)",
    "endpoint result": "1:2.0:>49"
  },
  {
    "compound": "CCOc1ccc(CN2CCCC2)cc1CNC(=O)[C@@H](N)Cc1c(C)cc(O)cc1C.O=C(O)C(F)(F)F",
    "measured target": "human KOR (Homo sapiens, UniProt P41145)",
    "endpoint result": "1:3.0:29"
  },
  {
    "compound": "CCOc1ccc(CN2CC3CC3C2)cc1CNC(=O)[C@@H](N)Cc1c(C)cc(O)cc1C.O=C(O)C(F)(F)F (stereo partly drawn)",
    "measured target": "human KOR (Homo sapiens, UniProt P41145)",
    "endpoint result": "1:2.6:13"
  },
  {
    "compound": "CCOc1ccc(CN2CCCCC2)cc1CNC(=O)[C@@H](N)Cc1c(C)cc(O)cc1C.O=C(O)C(F)(F)F",
    "measured target": "human KOR (Homo sapiens, UniProt P41145)",
    "endpoint result": "1:3.1:20"
  }
]

Need Selectivity MOR:DOR:KOR, KOR term (Ki KOR / Ki MOR) of CCOc1ccc(CN(C)Cc2ccccc2)cc1CNC(=O)[C@@H](N)Cc1c(C)cc(O)cc1C.O=C(O)C(F)(F)F , thanks.
1:4.0:26

* * *

measured target: human DOR (Homo sapiens, UniProt P41143)
Sequence (P41143 whole entry): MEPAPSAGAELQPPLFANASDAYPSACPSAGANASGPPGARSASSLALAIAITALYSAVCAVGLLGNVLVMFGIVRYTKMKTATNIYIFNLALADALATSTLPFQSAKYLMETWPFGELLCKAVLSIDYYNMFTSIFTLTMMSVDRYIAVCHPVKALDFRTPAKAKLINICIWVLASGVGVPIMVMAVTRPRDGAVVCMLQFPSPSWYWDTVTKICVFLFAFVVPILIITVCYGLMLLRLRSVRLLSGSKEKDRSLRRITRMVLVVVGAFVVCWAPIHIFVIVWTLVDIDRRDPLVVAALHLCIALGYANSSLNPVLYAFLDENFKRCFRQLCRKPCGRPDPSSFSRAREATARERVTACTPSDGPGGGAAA
Type: biochemical
outcome measure: Potency, EC50 DOR

[
  {
    "compound": "CCOc1ccc(C(=O)N2CCCC2)cc1CNC(=O)[C@@H](N)Cc1c(C)cc(O)cc1C.O=C(O)C(F)(F)F [Compound 21]",
    "measured target": "human DOR (Homo sapiens, UniProt P41143)",
    "Potency, EC50 DOR": "DNS"
  },
  {
    "compound": "CCOc1ccc(C(=O)N2Cc3ccccc3C2)cc1CNC(=O)[C@@H](N)Cc1c(C)cc(O)cc1C.O=C(O)C(F)(F)F [Compound 22]",
    "measured target": "human DOR (Homo sapiens, UniProt P41143)",
    "Potency, EC50 DOR": "DNS"
  },
  {
    "compound": "CCOc1ccc(CN(C)Cc2ccccc2)cc1CNC(=O)[C@@H](N)Cc1c(C)cc(O)cc1C.O=C(O)C(F)(F)F [Compound 20]",
    "measured target": "human DOR (Homo sapiens, UniProt P41143)",
    "Potency, EC50 DOR": "DNS"
  },
  {
    "compound": "CCOc1ccc(CN2CCOCC2)cc1CNC(=O)[C@@H](N)Cc1c(C)cc(O)cc1C.O=C(O)C(F)(F)F [Compound 16]",
    "measured target": "human DOR (Homo sapiens, UniProt P41143)",
    "Potency, EC50 DOR": "DNS"
  }
]

Now consider the entry below.
For the record CCOc1ccc(CN2CCc3ccccc3C2)cc1CNC(=O)[C@@H](N)Cc1c(C)cc(O)cc1C.O=C(O)C(F)(F)F [Compound 18] , what value of Potency, EC50 DOR is listed for human DOR (Homo sapiens, UniProt P41143)?
DNS
